// data source = patent US20160024210A1

Target: T1, human H7CR (B7-H7 counter-receptor) (human, UniProt Q96BF3 23-282)
T1 construct: Used for H7CR on CHO.hH7CR transfectants, human T cells and tonsil tissue; also called B7-H7CR; CD28H
T1 sequence: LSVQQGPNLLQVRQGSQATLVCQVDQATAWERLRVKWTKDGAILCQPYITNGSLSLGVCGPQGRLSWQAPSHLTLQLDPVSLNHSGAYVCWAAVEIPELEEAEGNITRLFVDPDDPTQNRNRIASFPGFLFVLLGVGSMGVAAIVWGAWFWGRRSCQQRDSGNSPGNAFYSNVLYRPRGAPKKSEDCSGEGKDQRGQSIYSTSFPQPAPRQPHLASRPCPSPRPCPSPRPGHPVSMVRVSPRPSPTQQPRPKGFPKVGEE
Assay: binding to human H7CR as endogenously expressed on the surface of a cell
parameter: binding result

binder="4.5 humanized variant 18 (HC1-3 / LC2-3) (antibody, V domains shown, Variable domains only; detected with anti-hIg secondary; also called VH1C / VL2C) VH: QVQLQESGPGLVKPSQTLSLTCTVSGFSITTGGYYWNWIRQFPGKKLEWMGYIYTSGRTSYNPSLKSRVTISRDTSKNQFSLKLSSVTAADTAVYYCADMADKGGWFAYWGQGTLVTVSS VL: DIVMTQTPSSLPVTPGEPASISCLSSQSLFSSNTKRNYLNWYLQKPGQSPKLLIYHASTRLSGVPDRFSGSGSGTDFTLKISRVEAEDVGDYFCQQHYETPLTFGDGTRLEIK" parameter="binding result" endpointresult=binds
binder="4.5 humanized variant 35 (HC2-3 / LC2-2) (antibody, V domains shown, Variable domains only; detected with anti-hIg secondary; also called VH2C / VL2B) VH: QIQLKESGPTLVKPTQTLTLTCTVSGFSITTGGYYWNWIRQPPGKKLEWMALIYTSGRTSYNPSLKSRLTITKDTSKNQVVLTMTNMDPVDTATYYCADMADKGGWFAYWGQGTLVTVSS VL: DIVMTQTPLSLPVTPGEPASISCRSSQSLFSSNTKRNYLNWYLQKPGQSPKLLIYHASTRLSGVPDRFSGSGSGTDFTLKISRVEAEDVGDYFCQQHYETPLTFGDGTRLEIK" parameter="binding result" endpointresult=binds
binder="4.5 humanized variant 13 (HC1-3 / LC1-1) (antibody, V domains shown, Variable domains only; detected with anti-hIg secondary; also called VH1C / VL1A) VH: QVQLQESGPGLVKPSQTLSLTCTVSGFSITTGGYYWNWIRQFPGKKLEWMGYIYTSGRTSYNPSLKSRVTISRDTSKNQFSLKLSSVTAADTAVYYCADMADKGGWFAYWGQGTLVTVSS VL: DIVMTQSPDSLAVSLGERATINCKSSQSLFSSNTKRNYLAWYQQKPGQPPKLLIYHASTRESGVPDRFSGSGSGTDFTLTISSLQAEDVAVYYCQQHYETPLTFGQGTRLEIK" parameter="binding result" endpointresult=binds
binder="4.5 humanized variant 11 (HC1-2 / LC2-2) (antibody, V domains shown, Variable domains only; detected with anti-hIg secondary; also called VH1B / VL2B) VH: QVQLQESGPGLVKPSQTLSLTCTVSGFSITTGGYYWNWIRQHPGKKLEWIGYIYTSGRTSYNPSLKSRVTISRDTSKNQFSLKLSSVTAADTAVYYCADMADKGGWFAYWGQGTLVTVSS VL: DIVMTQTPLSLPVTPGEPASISCRSSQSLFSSNTKRNYLNWYLQKPGQSPKLLIYHASTRLSGVPDRFSGSGSGTDFTLKISRVEAEDVGDYFCQQHYETPLTFGDGTRLEIK" parameter="binding result" endpointresult=binds
binder="4.5 humanized variant 9 (HC1-2 / LC1-3) (antibody, V domains shown, Variable domains only; detected with anti-hIg secondary; also called VH1B / VL1C) VH: QVQLQESGPGLVKPSQTLSLTCTVSGFSITTGGYYWNWIRQHPGKKLEWIGYIYTSGRTSYNPSLKSRVTISRDTSKNQFSLKLSSVTAADTAVYYCADMADKGGWFAYWGQGTLVTVSS VL: DIVMTQSPDSLAVSLGERATINCLSSQSLFSSNTKRNYLNWYQQKPGQSPKLLIYHASTRLSGVPDRFSGSGSGTDFTLTISSLQAEDVADYFCQQHYETPLTFGDGTRLEIK" parameter="binding result" endpointresult=binds
